The values you see were collected from patent US20250197488A1.

Provide the recorded pKd for the entries that follow.
- assayed_target: T1, human IL-11 (AAH12506.1, Pro22-Leu199) (human, UniProt P20809 22-199)
- T1 construct: The range Pro22-Leu199 counts on AAH12506.1; The Octet runs say only 'human IL-11'; also called hIL-11
- T1 chain: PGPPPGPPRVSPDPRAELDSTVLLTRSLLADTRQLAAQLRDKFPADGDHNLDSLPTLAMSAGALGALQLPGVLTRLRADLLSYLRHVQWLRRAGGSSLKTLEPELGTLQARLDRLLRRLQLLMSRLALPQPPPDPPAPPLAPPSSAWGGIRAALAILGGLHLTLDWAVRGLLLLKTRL
- test_name: BLI (Octet), antibody captured, human IL-11 in solution
- Procedure: The affinity of the murine antibodies purified from the hybridoma supernatants was determined using an Octet QKe System instrument from Fortebio Inc. with an anti-mouse IgG Fc Capture biosensor to capture the Fc fragments of the antibodies, for which an anti-IL-11 antibody named “3C6-mFc” recombinantly expressed was used at the same concentration as a positive control. […] Binding signals were detected on the Octet QKe System instrument with Hy5C2, Hy8C8, Hy16B5, Hy18A10, and Hy18H10. […]
// scale note: pKd = -log10(conc_M); give the bare number

q: Bench note: what pKd did hz8C8-VHm1-m3 + hz8C8-VLm7 (antibody, human IgG1, kappa, V domains shown, human IgG1 constant regions) VH: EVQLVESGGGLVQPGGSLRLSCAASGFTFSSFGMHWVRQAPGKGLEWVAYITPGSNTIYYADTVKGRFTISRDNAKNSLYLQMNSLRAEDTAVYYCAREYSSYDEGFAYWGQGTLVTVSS VL: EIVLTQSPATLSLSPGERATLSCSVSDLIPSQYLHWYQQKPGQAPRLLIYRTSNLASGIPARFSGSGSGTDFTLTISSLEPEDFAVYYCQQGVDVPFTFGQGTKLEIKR show?
a: 10.01

q: // next record hz8C8-VHm4 + hz8C8-VL (antibody, human IgG1, kappa, V domains shown, human IgG1 constant regions) VH: EVQLVESGGGLVQPGGSLRLSCAASGFTFSSFGMHWVRQAPGKGLEWVAYITSGANTIYYADTVKGRFTISRDNAKNSLYLQMNSLRAEDTAVYYCAREYYSYDEGFAYWGQGTLVTVSS VL: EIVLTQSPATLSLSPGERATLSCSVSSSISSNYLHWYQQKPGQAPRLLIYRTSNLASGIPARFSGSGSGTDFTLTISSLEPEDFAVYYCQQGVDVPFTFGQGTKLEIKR
a: 8.86
